target-system: T1, membrane-bound B Lymphocyte Stimulator on U937 plasma membrane preparations (human, UniProt Q9Y275 1-285)
T1 construct: Natural protein in plasma membrane fractions of the human cell line U937 coated on ELISA plates; also called U937 plasma membranes; U937 membranes
T1 sequence (Q9Y275 whole entry): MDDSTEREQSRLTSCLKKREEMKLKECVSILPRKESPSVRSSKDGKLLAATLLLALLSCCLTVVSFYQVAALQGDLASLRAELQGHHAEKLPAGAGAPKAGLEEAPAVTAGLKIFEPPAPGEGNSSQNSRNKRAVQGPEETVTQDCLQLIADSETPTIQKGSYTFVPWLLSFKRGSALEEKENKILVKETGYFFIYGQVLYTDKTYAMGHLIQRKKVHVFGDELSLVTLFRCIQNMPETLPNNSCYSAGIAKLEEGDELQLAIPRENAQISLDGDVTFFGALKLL
assay-procedure: phage ELISA
parameter-measured: binding result

[
  {
    "binder": "I031C07 (scFv) scFv: EVQLVQSGAEVKKPGSSVKVSCRASGGSFIDGSINWLRQAPGQGLEWVGGTIPLANRANYAQKFRDRVTITADELTAIVFLELTSLRSDDTALYYCARSSPPRWYDALTGDSSYHSAMDVWGQGTMVTVSSGGGGSGGGGSGGGGSAQSALTQPPSASGSPGQSVTISCSGTSSDIGDSNSVSWYQQHPGKAPKLLIYEVTKRPSGVPDRFAGSRSDNTASLTVSGLQTEDEADYYCSSSAARNHLVFGGGTKVTVLG",
    "experimental-result": "binds"
  },
  {
    "binder": "I008C02 (scFv) scFv: AVQLQESGPGLVKPSETLSLTCSVSGASMTTNKFYWSWIRQPPGKGLEWIGNINYSKSTNYNPSLKSRITISVDTSKNQLSLKLNSVTAADTAVYYCARHVRDYDILTGYYRGHYFDYWGQGTMVTVSSGGGGSGGGGSGGGGSQSVLTQPASVSGSPGQSITISCTGTSSDVGGYNYVSWYQQHPGKAPKLMIYEGSKRPSGVSNRFSGSKSGNTASLTISGLQAEDEADYYCSSYTTRSTRVFGGGTKLTVLG",
    "experimental-result": "binds"
  },
  {
    "binder": "I079F08 (scFv) scFv: QMQLVQSGGGVVQPGRSLRLSCAASGFTFSSYGMHWVRQAPGKGLEWVAVISYDGSIKYYADSVKGRFTISRDNSKNTLYLQMNSLRAEDTAVYYCARYYYHSSGSDAFDIWGQGTLVTVPSGGGGSGGGGSGGGGSQSVLTQPPSASGTPGQRVTISCSGSSSNIGSNTVNWYQRLPGAAPQLLIYNNNQRPSGVPDRFSGSKSGTSASLAISGLQSEDEADYYCAAWDDSLNGWVFGGGTKLTVLG",
    "experimental-result": "binds"
  }
]
